Every entry's value here was drawn from patent US10941157B2.

tested on: Collectotrichum graminicola (Cg); assay: In vitro pathogen growth inhibition assay, Cg; type: cell-based; settings: 48 h, ≥90% growth inhibition; 48 hours; vs 2% DMSO control; read-out: Compound Concentration (ppm) sufficient for ≥90% inhibition of Cg

{"molecule": "CCOC(=O)c1sc2c(c1C)c(=O)n(C(C)(C)C(=O)NC(C)C)c(=O)n2C[C@H](OCCS(C)(=O)=O)c1cc(F)ccc1OC", "comparator": "=", "IC90, µg/mL": 0.4}
{"molecule": "COc1ccc(F)cc1[C@@H](O)Cn1c(=O)n(C(C)(C)C(=O)NC(C)C)c(=O)c2c(C)c(-n3cccn3)sc21", "comparator": "=", "IC90, µg/mL": 10}
{"molecule": "Cc1c(-n2nccn2)sc2c1c(=O)n(C(C)(C)C(=O)NC(C)C)c(=O)n2C[C@H](OCC(C)(C)C#N)c1cc(C#N)ccc1OCC#N", "comparator": ">", "IC90, µg/mL": 50}
{"molecule": "COc1ccc(F)cc1[C@H](Cn1c(=O)n([C@@H](C)C(=O)N2CCCC2)c(=O)c2c(C)c(-n3nccn3)sc21)OCCC#N", "comparator": "=", "IC90, µg/mL": 10}
{"molecule": "COc1ccc(F)cc1[C@H](Cn1c(=O)n([C@H](C)C(N)=O)c(=O)c2c(C)c(-n3nccn3)sc21)OCCC#N", "comparator": ">", "IC90, µg/mL": 50}
{"molecule": "CCOC(=O)c1sc2c(c1C)c(=O)n([C@H](C)C(=O)N1CCCC1)c(=O)n2C[C@H](OCCC#N)c1cc(F)ccc1OC", "comparator": "=", "IC90, µg/mL": 2}
{"molecule": "CCOC(=O)c1sc2c(c1C)c(=O)n([C@@H](C)C(=O)N1CCCC1)c(=O)n2C[C@H](OCCC#N)c1cc(F)ccc1OC", "comparator": ">", "IC90, µg/mL": 50}
{"molecule": "CCOC(=O)c1sc2c(c1C)c(=O)n(C(C)(C)C(=O)NC(C)C)c(=O)n2CCc1cc(F)ccc1OCCC#N", "comparator": ">", "IC90, µg/mL": 50}
{"molecule": "COc1ccc(F)cc1[C@H](Cn1c(=O)n(C(C)(C)C(=O)NC(C)C)c(=O)c2c(C)c(-n3cccn3)sc21)OC[C@@H](C)C#N", "comparator": "=", "IC90, µg/mL": 0.08}
{"molecule": "CCc1ccc(F)cc1[C@H](Cn1c(=O)n(C(C)(C)C(=O)NC(C)C)c(=O)c2c(C)c(-n3nccn3)sc21)OCC(C)(C)C#N", "comparator": "=", "IC90, µg/mL": 0.08}
{"molecule": "COc1ccc(F)cc1[C@H](Cn1c(=O)n(C(C)(C)C(=O)NC2CCC2)c(=O)c2c(C)c(-n3cccn3)sc21)OCCC#N", "comparator": "=", "IC90, µg/mL": 2}
{"molecule": "COc1ccc(F)cc1[C@](C)(Cn1c(=O)n(C(C)(C)C(=O)NC(C)C)c(=O)c2c(C)c(-n3nccn3)sc21)OCCC#N", "comparator": "=", "IC90, µg/mL": 2}
{"molecule": "COc1ccccc1[C@@H](O)Cn1c(=O)n(C(C)(C)C(=O)NC(C)C)c(=O)c2c(C)c(-n3nccn3)sc21", "comparator": "=", "IC90, µg/mL": 2}

###

Tested on: Collectotrichum graminicola (Cg)
Assay: In vitro pathogen growth inhibition assay, Cg
Type: cell-based
Settings: 48 h, ≥90% growth inhibition; 48 hours; vs 2% DMSO control; read-out: Compound Concentration (ppm) sufficient for ≥90% inhibition of Cg
Method: A growth inhibition assay was conducted to determine the ability of compounds to control the growth of fungal pathogens, such as Botrtyis cinerea (Bc), Collectotrichum graminicola (Cg), Diplodia maydis (Dm), Fusarium moniliforme (Fm), Fusarium virguliforme (Fv), Phytophthora capsici (Pc), Rhizoctonia solani (Rs), and Septoria tritici (St). […] Plate readings were repeated at both 24 and 48 hours. […]
We begin with a simple list: items and their reported IC90.
observationType: IC90 (µg/mL)

{"molecule": "COc1ccc(F)cc1[C@H](Cn1c(=O)n(C(C)(C)C(=O)N2CCCCC2)c(=O)c2c(C)c(-n3cccn3)sc21)OC1CCOCC1", "measuredOn": "Collectotrichum graminicola (Cg)", "comparator": "=", "measured": 2}
{"molecule": "Cc1c(-n2nccn2)sc2c1c(=O)n(C(C)(C)C(=O)NC(C)C)c(=O)n2CCc1cc(F)ccc1OCCC#N", "measuredOn": "Collectotrichum graminicola (Cg)", "comparator": "=", "measured": 50}
{"molecule": "COc1ccc(F)cc1[C@H](Cn1c(=O)n([C@@H](C)C(=O)N2CCCC2)c(=O)c2c(C)c(-n3cccn3)sc21)OCCC#N", "measuredOn": "Collectotrichum graminicola (Cg)", "comparator": "=", "measured": 50}
{"molecule": "CCOC(=O)c1sc2c(c1C)c(=O)n(C(C)(C)C(=O)NC(C)C)c(=O)n2C[C@H](OCCOC)c1cc(F)ccc1OC", "measuredOn": "Collectotrichum graminicola (Cg)", "comparator": "=", "measured": 2}
{"molecule": "CCOC(=O)c1sc2c(c1C)c(=O)n(C(C)(C)C(=O)N1CCCC1)c(=O)n2C[C@H](OCCO)c1cc(F)ccc1OC", "measuredOn": "Collectotrichum graminicola (Cg)", "comparator": "≥", "measured": 0.4}
{"molecule": "COCCO[C@@H](Cn1c(=O)n(C(C)(C)C(=O)NC(C)C)c(=O)c2c(C)c(-n3cccn3)sc21)c1cc(F)ccc1OC", "measuredOn": "Collectotrichum graminicola (Cg)", "comparator": "=", "measured": 50}
{"molecule": "CCOC(=O)c1sc2c(c1C)c(=O)n(C(C)(C)C(=O)NC(C)C)c(=O)n2C[C@H](OCC(C)(C)C#N)c1ccccc1OC", "measuredOn": "Collectotrichum graminicola (Cg)", "comparator": "=", "measured": 2}
{"molecule": "COc1ccc(Cl)cc1[C@H](Cn1c(=O)n(C(C)(C)C(=O)NC(C)C)c(=O)c2c(C)c(-n3nccn3)sc21)OCC(C)(C)C#N", "measuredOn": "Collectotrichum graminicola (Cg)", "comparator": "=", "measured": 2}
{"molecule": "CCNC(=O)C(C)(C)n1c(=O)c2c(C)c(-n3nccn3)sc2n(C[C@H](OC(C)=O)c2cc(F)ccc2OC)c1=O", "measuredOn": "Collectotrichum graminicola (Cg)", "comparator": "=", "measured": 10}
{"molecule": "COc1ccc(F)cc1[C@H](Cn1c(=O)n([C@H](C)C(=O)N(C)C(C)C)c(=O)c2c(C)c(-n3cccn3)sc21)OCCO", "measuredOn": "Collectotrichum graminicola (Cg)", "comparator": "=", "measured": 10}
{"molecule": "Cc1c(-n2nccn2)sc2c1c(=O)n(C(C)(C)C(=O)NC(C)C)c(=O)n2CCc1cc(F)ccc1OC(C)C", "measuredOn": "Collectotrichum graminicola (Cg)", "comparator": "=", "measured": 10}
{"molecule": "COc1ccc(F)cc1[C@H](Cn1c(=O)n(C(C)(C)C(=O)NC(C)C)c(=O)c2c(C)c(-n3nccn3)sc21)OCC(C)(C)C#N", "measuredOn": "Collectotrichum graminicola (Cg)", "comparator": "=", "measured": 0.4}
{"molecule": "COc1ccccc1[C@H](Cn1c(=O)n([C@H](C)C(=O)N(C)C(C)C)c(=O)c2c(C)c(-n3nccn3)sc21)OCCC#N", "measuredOn": "Collectotrichum graminicola (Cg)", "comparator": "=", "measured": 10}

###

System: Botrtyis cinerea (Bc)
Experiment: In vitro pathogen growth inhibition assay, Bc
Type: cell-based
Conditions: 48 h, ≥90% growth inhibition; 48 hours; vs 2% DMSO control; read-out: Compound Concentration (ppm) sufficient for ≥90% inhibition of Bc
Description: A growth inhibition assay was conducted to determine the ability of compounds to control the growth of fungal pathogens, such as Botrtyis cinerea (Bc), Collectotrichum graminicola (Cg), Diplodia maydis (Dm), Fusarium moniliforme (Fm), Fusarium virguliforme (Fv), Phytophthora capsici (Pc), Rhizoctonia solani (Rs), and Septoria tritici (St). […] Plate readings were repeated at both 24 and 48 hours. […]

{"molecule": "COc1ccc(F)cc1[C@H](Cn1c(=O)n(C(C)(C)C(=O)NC(C)C)c(=O)c2c(C)c(-n3cccn3)sc21)OCCS(C)(=O)=O", "IC90 / µg/mL": 2}
{"molecule": "Cc1c(-n2nccn2)sc2c1c(=O)n(C(C)(C)C(=O)NC(C)C)c(=O)n2C[C@H](OCCC#N)c1cc(F)ccc1O", "IC90 / µg/mL": 2}
{"molecule": "COc1ccccc1CCn1c(=O)n(C(C)(C)C(=O)NC(C)C)c(=O)c2c(C)c(-n3nccn3)sc21", "IC90 / µg/mL": 0.4}
{"molecule": "CCNC(=O)C(C)(C)n1c(=O)c2c(C)c(C(=O)OCC)sc2n(C[C@H](OCCC#N)c2cc(F)ccc2OC)c1=O", "IC90 / µg/mL": 2}
{"molecule": "COCCO[C@@H](Cn1c(=O)n(C(C)(C)C(=O)N2CCCC2)c(=O)c2c(C)c(-n3nccn3)sc21)c1cc(F)ccc1C", "IC90 / µg/mL": 2}
{"molecule": "Cc1c(-n2nccn2)sc2c1c(=O)n(C(C)(C)C(=O)NC(C)C)c(=O)n2CCc1cc(F)ccc1OC1CCOCC1", "IC90 / µg/mL": 2}
